- Tested on: Fibroblast
- Measurement Description: Multiplex assay against human fibroblast
- Assay type: toxicity, cell-based
- Assay Setup: 12 h, 10 µM, compound concentration 10 uM, replicate 2
Value Type: Population Mitotic Cells (%)
Unit % implied. Number only.

Compound	Test Target	Units Symbol	Population Mitotic Cells (%)
O=c1ccc2ccc(OCCCCN3CCN(c4cccc5sccc45)CC3)cc2[nH]1 [BREXPIPRAZOLE]	Fibroblast	%	54
CCn1c(-c2nc3cc(C(=O)N4CCCC(N)C4)ccc3n2C)cc2ccccc21.Cl (stereo not drawn)	Fibroblast	%	61
C=CCN1C[C@H](C(=O)N(CCCN(C)C)C(=O)NCC)C[C@@H]2c3cccc4[nH]cc(c34)C[C@H]21 [CABERGOLINE]	Fibroblast	%	64

# Population Mitotic Cells (%) (compound: CC(C)C[C@H](CO)Nc1nc(S[C@@H](C)c2ccccc2)nc2nc(N)sc12 [AZD-8797] ) is 64

Entry under test: COc1cc2nc(N3CCN(C(=O)c4ccco4)CC3)nc(N)c2cc1OC.Cl [PRAZOSIN HYDROCHLORIDE] . Its Population Mitotic Cells (%) was 68

Quick note, Population Mitotic Cells (%) for CC(C)(O)C(=O)N1CCN(c2ccc(C(F)(F)F)c(C3=C(c4c[nH]c5ccccc45)C(=O)NC3=O)c2)CC1 landed at 64

Just so you know, measured Population Mitotic Cells (%) for Cl.Cl.OCCOCCN1CCN(C(c2ccccc2)c2ccc(Cl)cc2)CC1 (stereo not drawn) [HYDROXYZINE HYDROCHLORIDE] came out at 59

Measured Population Mitotic Cells (%) of Cc1ccc(OCC(O)C(C)NC(C)C)c2c1CCC2.Cl (stereo not drawn) : 74

----------
- Tested on: Fibroblast
- Measurement Description: Multiplex assay against human fibroblast
- Format: toxicity, cell-based
- Assay Setup: 24 h, 10 µM, compound concentration 10 uM, replicate 2
Value Type: Total Cell Count
No unit in the answer, only the number.

// below: answered compounds
Compound	Test Target	Total Cell Count
COc1cc2nc(N3CCN(C(=O)COc4c(OC)cccc4C(C)C)CC3)nc(N)c2cc1OC.Cl.Cl	Fibroblast	273
C=CCN1C[C@H](C(=O)N(CCCN(C)C)C(=O)NCC)C[C@@H]2c3cccc4[nH]cc(c34)C[C@H]21 [CABERGOLINE]	Fibroblast	181
CCc1nn2c(C)cc(C)nc2c1Cc1ccc(-c2nnc(C3CCNCC3)o2)cc1	Fibroblast	151
N[C@](CC1c2ccccc2Oc2ccccc21)(C(=O)O)[C@H]1C[C@@H]1C(=O)O	Fibroblast	113
CN1CCC(C(=O)c2cccc(NC(=O)c3c(F)cc(F)cc3F)n2)CC1	Fibroblast	153
CC(C)(C)c1ccc(CSc2cnn(C(C)(C)C)c(=O)c2Cl)cc1 [PYRIDABEN]	Fibroblast	136
CCCCC[C@H](O)/C=C/[C@H]1[C@H](O)CC(=O)[C@@H]1CCCCCCC(=O)O [ALPROSTADIL]	Fibroblast	157
CN1CCN2c3ccccc3Cc3ccccc3C2C1.Cl (stereo not drawn) [MIANSERIN HYDROCHLORIDE]	Fibroblast	127
CN1CCN(c2ccc(Nc3c4ccccc4nc4ccccc34)cc2)CC1.Cl.Cl.O	Fibroblast	205
COc1cc(C(=O)N2CC[C@@H](O)[C@@H](N)C2)cc2nc(-c3cc4ccccc4n3CC3CC3)n(C)c12.Cl	Fibroblast	174

Sample CSc1nc(NC2CCCC2)c([N+](=O)[O-])c(NC2CCCC2)n1 [GS-39783] ; Total Cell Count observed: 164

Form field Total Cell Count, entry CC(F)(F)CN1CCOc2c(nn(-c3ccccc3Cl)c2-c2ccc(Cl)cc2)C1=O : 121

The compound listed as O=C(O)CCC/C=C\CC1C(O)CC(O)C1/C=C/C(O)COc1cccc(Cl)c1 (stereo not drawn) [CLOPROSTENOL] has a reported Total Cell Count of 107

Documented Total Cell Count of CCn1c(-c2nc3cc(C(=O)N4CCCC(N)C4)ccc3n2C)cc2ccccc21.Cl (stereo not drawn) : 189

// sample Cc1cc(=O)n(C)c2cc(N3C(=O)CC[C@H](NS(=O)(=O)CC(C)C)[C@H]3c3ccc(Cl)cc3)ccc12 , its Total Cell Count was 143

----------
A collection of compounds and their measured Total Cell Count
- System: Fibroblast
- Measurement Description: Multiplex assay against human fibroblast
- Type: toxicity, cell-based
- Assay Setup: 12 h, 10 µM, compound concentration 10 uM, replicate 2

Compound	Observed Result
COc1cc(C(=O)N2CC[C@@H](O)[C@@H](N)C2)cc2nc(-c3cc4ccccc4n3CC3CC3)n(C)c12.Cl	179

Param item: Cc1cc(=O)n(C)c2cc(N3C(=O)CC[C@H](NS(=O)(=O)CC(C)C)[C@H]3c3ccc(Cl)cc3)ccc12 ; param system: Fibroblast; output Total Cell Count: 133

For the compound COCCCN1CCC(NC(=O)c2cc(Cl)c(N)c3c2OCC3)CC1 [PRUCALOPRIDE] , the measured Total Cell Count on Fibroblast was 153

Record CC(F)(F)CN1CCOc2c(nn(-c3ccccc3Cl)c2-c2ccc(Cl)cc2)C1=O ; system Fibroblast; Total Cell Count = 134

----------
- Test system: HEK-293T
- Measurement Description: Multiplex assay against HEK293T
- Type: toxicity, cell-based
- Assay Setup: human, 48 h, 1 µM, compound concentration 1 uM, replicate 2
// reported Population Tubulin-Different-Phenotype (%) per item
All answers are understood in %, so give the number only.

GET /value?item= Cc1cc(-c2ccc3c(c2)CC[C@H]3N2CC3(CCN(C(=O)Cc4cn5cc(C)sc5n4)CC3)C2)ncn1 &field=Population Tubulin-Different-Phenotype (%) returns 10

Quick note, Population Tubulin-Different-Phenotype (%) for CN1CCN(c2ccc(Nc3c4ccccc4nc4ccccc34)cc2)CC1.Cl.Cl.O landed at 12

# Population Tubulin-Different-Phenotype (%) (compound: CCn1c(-c2nc3cc(C(=O)N4CCCC(N)C4)ccc3n2C)cc2ccccc21.Cl (stereo not drawn) ) is 11

Measured Population Tubulin-Different-Phenotype (%) of C=CCN1C[C@H](C(=O)N(CCCN(C)C)C(=O)NCC)C[C@@H]2c3cccc4[nH]cc(c34)C[C@H]21 : 10

Briefly, Population Tubulin-Different-Phenotype (%) measured for CN(C)C/C=C/C(=O)Nc1ccc(C(=O)N2CCCC(Nc3ncc(Cl)c(-c4c[nH]c5ccccc45)n3)C2)cc1 (stereo not drawn) : 74

----------
- System: HEK-293T
- Measurement Description: Multiplex assay against HEK293T
- Format: toxicity, cell-based
- Assay Setup: human, 12 h, 10 µM, compound concentration 10 uM, replicate 2
Non-standard residues stand in square brackets, D forms with d. Residues, ends and D or L forms follow the SMILES beside them.
molecules and their reported Population Hoechst High Intensity Objects (%)
Lab book: enter the figure in %, no units written.

Would you please look over these solved cases?
Molecule	Observed Result
Cc1cc(-c2ccc3c(c2)CC[C@H]3N2CC3(CCN(C(=O)Cc4cn5cc(C)sc5n4)CC3)C2)ncn1	8
C[C@H](NC(=O)CNC(=O)c1cccc(Cl)c1)c1ccccc1	13
COc1ccc2[nH]c(I)c(CCNC(C)=O)c2c1	12
COC(c1ccccc1)(c1ccccc1)[C@H](Oc1nc(C)cc(C)n1)C(=O)O	13
CC(C)C[C@@H]1NC(=O)[C@@H](C(C)C)NC(=O)[C@@H]2CCCN2C(=O)[C@@H](CC(=O)O)NC(=O)[C@@H](Cc2c[nH]c3ccccc23)NC1=O [BQ-123] (cyclo(L[dW][dD]P[dV]))	11
CCCCCCNC(=O)Nc1ccc(S(=O)(=O)Nc2ccc(CCNC[C@H](O)COc3ccc(O)cc3)cc2)cc1	7

# Population Hoechst High Intensity Objects (%) (molecule: CN(C)C(=O)Cn1cc(-c2ccc(-c3nnc4ccccn34)cc2)cn1 ) is 8

Notebook: S=C(NCCCc1c[nH]cn1)NCCCN(Cc1ccc(Cl)c(Cl)c1)c1ccc(Br)cn1 , Population Hoechst High Intensity Objects (%) read as 19

Population Hoechst High Intensity Objects (%) for CC(C)(C)c1ccc(CSc2cnn(C(C)(C)C)c(=O)c2Cl)cc1 is 17

Population Hoechst High Intensity Objects (%) recorded for this molecule, O=c1ccc2ccc(OCCCCN3CCN(c4cccc5sccc45)CC3)cc2[nH]1 , is 41

Lab note: measured Population Hoechst High Intensity Objects (%) of CCC(=O)OCC(=O)[C@@]1(OC(=O)CC)[C@@H](C)C[C@H]2[C@@H]3CCC4=CC(=O)C=C[C@]4(C)[C@@]3(Cl)[C@@H](O)C[C@@]21C [BECLOMETHASONE DIPROPIONATE] was 16

The recorded Population Hoechst High Intensity Objects (%) for O=C(Nc1cc(-c2ccccc2)nn1-c1ccccc1F)c1ccc([N+](=O)[O-])cc1 is 6

So for COCCCN1CCC(NC(=O)c2cc(Cl)c(N)c3c2OCC3)CC1 [PRUCALOPRIDE] , the logged Population Hoechst High Intensity Objects (%) turned out to be 10
